Data credit: PubChem BioAssay

- TARGET ENTITY: Dihydroorotate dehydrogenase (quinone), mitochondrial (Plasmodium falciparum (isolate 3D7))
- TEST DESCRIPTION: inhibition of P. falciparum DHODH – biochemical, C-terminal His tag, absorbance 600 nm, primary screen (AID 1175);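 note: recombinant parasite enzyme with a five histidine tag at its C terminus; test concentration not given here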
- TEST SETTINGS: PfDHODH enzyme, DCIP absorbance 600 nm; higher = more signal, called active from +8 up or from −8 down
READOUT TYPE: composite z-score
// return just the number, without any unit appended

Reference set, count: 5
COMPOUND	READOUT VALUE
CC(=O)NCCCC[C@@H]1NC(=O)[C@@H]2C[C@H](C(=O)NCCCCCN)[C@H](c3cccc(OCCO)c3)N2C1=O	-0.585
O=C1[C@H]2C=C(I)[C@H](C[C@@H]2OCCOCCO)[C@@]12CO2	0.0832
CCOC(=O)C[C@H]1[C@H](OC(=O)c2ccc(C(=O)c3ccccc3)cc2)[C@@H](NC(=O)CC(C)C)c2cc(OCCCO)ccc2N1C(=O)c1ccccc1	-0.235
C=C(COC)C(=O)CC[C@@H](OC(C)=O)c1cccc(OCCO)c1	0.0704
CC(C)(C)OC(=O)CC[C@@]1(C(=O)NCC(O)CO)N=C(c2ccc(OCCCO)cc2)O[C@@H]1c1ccccc1CN=[N+]=[N-] (stereo not given in full)	0.345

input: Specify measured composite z-score for Cc1ccc(S[C@]2(C(=O)NCCN3CCOCC3)CC(=O)N(Cc3ccccc3Cl)[C@@H]2c2ccc(CO)cc2I)cc1 .
output: -0.576

input: Give recorded composite z-score. C=CCNC(=O)[C@@H]1[C@H]2C(=O)O[C@H](c3ccccc3)[C@H](c3ccccc3)N2[C@H](c2ccccc2OCCO)[C@@]12C(=O)Nc1ccc(C#CCCO)cc12
output: 1.22

input: Give the reported composite z-score for this compound. CCCNC(=O)[C@@]1(C)c2ccccc2C(=O)N(c2ccc(C)cn2)[C@H]1c1ccc(CO)cc1
output: -0.281

input: Quote composite z-score reported for Cc1ccc(C(C)CC(O)C2C=CC3C(=O)N(c4ccccc4)C(=O)C3N2Nc2ccccc2)o1 (stereo not given) please.
output: -0.478

input: Input CCCC=C(CCC)[C@@H](NS(=O)(=O)CC12CCC(CC1=O)C2(C)C)c1ccc(C(=O)OC)cc1 (stereo not given in full) , output reported composite z-score.
output: -0.929

input: Given the compound O=C1O[C@@H](c2ccccc2)[C@@H](c2ccccc2)N2[C@@H](c3ccc(OCCO)cc3)[C@]3(C(=O)Nc4ccc(C#CC5=CCCCC5)cc43)[C@@H](C(=O)NC[C@H](O)c3ccccc3)[C@H]12 , write its reported composite z-score.
output: -0.729

input: Return value of composite z-score for input CCCN1C(=O)[C@]2(Cc3ccccc31)N=C(c1ccc(OCCCO)cc1)O[C@@H]2c1ccccc1 , no commentary.
output: 1.16

input: Give composite z-score for [N-]=[N+]=Nc1ccccc1C[C@]1(C(=O)O)COC(c2ccc(OCCCO)cc2)=N1
output: 1.04

input: Answer with the recorded composite z-score for the compound listed here: C=C(C(=O)CC[C@H](OC(=O)c1ccccc1-c1ccccc1C(=O)O)c1cccc(OCCO)c1)C(C)C
output: -0.23

input: Tell me its composite z-score given CO[C@H]1O[C@H](CO)[C@@H](OC(=O)Nc2ccc(Br)cc2)[C@@H]2OC(=O)[C@@H](Cc3ccccc3)C/C=C/C[C@H](Cc3ccccc3)C(=O)O[C@@H]12 as the entry.
output: -1.25
